Target: BTK (Homo sapiens, UniProt Q06187)
Construct: endogenous in cells; host or cells: TMD8 cells
Sequence (Q06187 whole entry): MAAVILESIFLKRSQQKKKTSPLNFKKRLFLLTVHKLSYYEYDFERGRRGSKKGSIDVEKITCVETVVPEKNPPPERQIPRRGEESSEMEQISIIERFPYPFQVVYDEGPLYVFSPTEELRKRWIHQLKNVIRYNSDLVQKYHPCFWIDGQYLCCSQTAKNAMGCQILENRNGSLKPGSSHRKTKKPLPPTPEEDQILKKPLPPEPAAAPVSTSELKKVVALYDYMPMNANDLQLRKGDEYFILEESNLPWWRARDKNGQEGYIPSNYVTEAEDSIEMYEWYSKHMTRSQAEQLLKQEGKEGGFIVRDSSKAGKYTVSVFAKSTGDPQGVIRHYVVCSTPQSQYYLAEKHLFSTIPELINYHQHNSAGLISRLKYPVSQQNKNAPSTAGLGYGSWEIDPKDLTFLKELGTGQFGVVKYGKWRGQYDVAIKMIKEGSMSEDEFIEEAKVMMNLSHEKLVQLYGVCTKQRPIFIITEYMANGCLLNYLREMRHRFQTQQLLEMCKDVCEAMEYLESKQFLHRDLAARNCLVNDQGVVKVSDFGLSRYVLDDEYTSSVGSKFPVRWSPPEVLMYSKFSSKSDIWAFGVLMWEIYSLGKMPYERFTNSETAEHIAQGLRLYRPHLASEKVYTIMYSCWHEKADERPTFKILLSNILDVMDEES
Test: Cellular BTK HTRF assay (BTK degradation) in TMD8 cells
Format: cell-based
Settings: four hours incubation, Total-BTK HTRF relative to DMSO-treated cells
Property Label: DC50

Answered examples (6):
Value lookup for DC50; key = NC(=O)c1ncc(N2CCCCC2)nc1Nc1ccc(C2CCN(CC3CCN(c4ncc(C(=O)NC5CCC(=O)NC5=O)o4)CC3)CC2)cc1 (centres unmarked) [Compound 191]
5 to 15 nM

Try NC(=O)c1ncc(N2CCC[C@@H](N3CCOC3=O)C2)nc1Nc1ccc(C2CCN(C[C@H]3CCN(c4ccc5c(c4)C(=O)N(C4CCC(=O)NC4=O)C5=O)C3)CC2)cc1 (some centres unmarked) [Compound 73] next.
< 5 nM

Try NC(=O)c1ncc(N2CCOCC2)nc1Nc1ccc(C2CCN(C[C@H]3CCN(c4ccc5c(c4)C(=O)N(C4CCC(=O)NC4=O)C5=O)C3)CC2)cc1 (some centres unmarked) [Compound 161] next.
5 to 15 nM

Try NC(=O)c1ncc(N2CCCCC2)nc1Nc1ccc(C2CCN(CC3CCN(c4ccc(C(=O)NC5CCC(=O)NC5=O)nc4)CC3)CC2)cc1 (centres unmarked) [Compound 182] next.
< 5 nM

Try NC(=O)c1ncc(N2CCC[C@@H](CO)C2)nc1Nc1ccc(C2CCN(CC3CCN(c4ccc(C(=O)NC5CCC(=O)NC5=O)nc4)CC3)CC2)cc1 (some centres unmarked) [Compound 173] next.
< 5 nM

Try CN1CCN([C@H]2CCCN(c3cnc(C(N)=O)c(Nc4ccc(C5CCN(CC6CCN(c7ccc(C(=O)NC8CCC(=O)NC8=O)cc7)CC6)CC5)cc4)n3)C2)C1=O (some centres unmarked) [Compound 130] next.
< 5 nM

---
Value lookup for DC50; key = NC(=O)c1ncc(N2CCC[C@@H](N3CCCC3=O)C2)nc1Nc1ccc(N2CC(C3CCN(c4ccc5c(c4)C(=O)N(C4CCC(=O)NC4=O)C5=O)CC3)C2)cc1 (some centres unmarked) [Compound 169]
< 5 nM

Try CN1CCN([C@@H]2CCCN(c3cnc(C(N)=O)c(Nc4ccc(OCCCNc5ccc6c(c5)C(=O)N(C5CCC(=O)NC5=O)C6=O)cc4)n3)C2)C1=O (some centres unmarked) [Compound 64] next.
> 15 nM

Try CN1CCN([C@H]2CCCN(c3cnc(C(N)=O)c(Nc4ccc(C5(C)CCN([C@H]6C[C@H](Nc7cccc8c7C(=O)N(C7CCC(=O)NC7=O)C8=O)C6)CC5)cc4)n3)C2)C1=O (some centres unmarked) [Compound 103] next.
< 5 nM

Try CN1CCN([C@@H]2CCCN(c3cnc(C(N)=O)c(Nc4ccc(C5CCN(CC6CN(c7ccc8c(=O)n(C9CCC(=O)NC9=O)ccc8c7)C6)CC5)cc4)n3)C2)C1=O (some centres unmarked) [Compound 138] next.
< 5 nM

Try CN1CCN([C@@H]2CCCN(c3cnc(C(N)=O)c(Nc4ccc(OCCCNC(=O)[C@H]5C[C@@H](OCCCc6cccc7c6C(=O)N(C6CCC(=O)NC6=O)C7=O)C5)cc4)n3)C2)C1=O (some centres unmarked) [Compound 5] next.
> 15 nM
